Hey, just so you know, these numbers are from patent US20250074911A1.

- SYSTEM_NAME: BTK C481S (Homo sapiens (Human), UniProt Q06187, C481S)
- Sequence (Q06187 whole entry C481S): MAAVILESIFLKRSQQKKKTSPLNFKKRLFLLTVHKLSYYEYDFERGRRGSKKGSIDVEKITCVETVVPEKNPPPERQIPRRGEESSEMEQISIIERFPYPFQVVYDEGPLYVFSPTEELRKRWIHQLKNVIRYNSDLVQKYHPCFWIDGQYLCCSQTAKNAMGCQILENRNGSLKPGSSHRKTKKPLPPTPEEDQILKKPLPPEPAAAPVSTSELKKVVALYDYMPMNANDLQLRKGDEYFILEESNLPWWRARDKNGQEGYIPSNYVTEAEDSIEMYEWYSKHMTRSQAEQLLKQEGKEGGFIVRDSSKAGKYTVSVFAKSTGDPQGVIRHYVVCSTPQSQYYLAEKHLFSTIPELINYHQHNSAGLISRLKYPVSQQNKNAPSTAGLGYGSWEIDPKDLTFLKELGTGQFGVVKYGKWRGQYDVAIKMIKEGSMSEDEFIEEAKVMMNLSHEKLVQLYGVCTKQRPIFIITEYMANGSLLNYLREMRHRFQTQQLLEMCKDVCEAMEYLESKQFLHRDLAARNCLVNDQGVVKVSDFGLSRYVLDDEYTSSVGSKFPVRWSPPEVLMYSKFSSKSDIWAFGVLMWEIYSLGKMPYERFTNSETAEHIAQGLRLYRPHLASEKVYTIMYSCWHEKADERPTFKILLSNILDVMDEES
- PROCEDURE_TEXT: Binding kinetics measurements (Surface Plasmon Resonance) on BTK C481S
- EXPERIMENTAL_CONDITIONS: target residence time for BTK C481S, SPR
QUANTITY: Tau (h) BTK C418S (Act)

MOLECULE: Nc1ncc2c3c1c(-c1ccc(C(=O)Nc4cc(C(F)(F)F)ccn4)cc1)nn3[C@@H]1CCC[C@H](C1)NC(=O)C1CCN1CC/C=C/2 (stereo partly drawn)
QUANTITY: Tau (h) BTK C418S (Act)
RESULT_VALUE: 9.06

I. Nc1ncc2c3c1c(-c1ccc(C(=O)Nc4cc(C(F)(F)F)ccn4)cc1)nn3[C@@H]1CCC[C@H](C1)NC(=O)CCCC/C=C\C2 [Example 98b]
II. Nc1ncc2c3c1c(-c1ccc(C(=O)Nc4ccccn4)cc1)nn3[C@@H]1CCC[C@H](C1)NC(=O)CCCC/C=C\C2 [Example 100b]
Of the two listed items, which has the higher Tau (h) BTK C418S (Act)? First: I Second: II Refer to your chosen item by its label in the answer. I
